system: DeltatarO mutant; test: S. aureus survival, RN4220 and DeltatarO strains – OD600, teichoic acid synthesis inhibitors, primary screen (AID 463173); conditions: S. aureus RN4220 wild type/DeltatarO growth, OD600, 18 h, screened at 18.75 µg/mL (by protocol)
Screen size: about 52,000 compounds; about 4,300 (8.3%) were called active. No stated cut-off is given here; in the data, active means survival mostly below about 52% (no sharp cut-off); inactive means mostly above about 56%. The full list was thinned out, with actives kept by preference.
Classes used: active, inactive

>>> df
                                   compound               tgt  classname
0      CCCCN(C)CCNC(=O)c1ccc2c(c1)NC(=O)CN2  DeltatarO mutant   inactive
1  CCC(C)NC(=O)Cn1c(=O)ccc2cc(S(=O)(=O)N3CCCC3)ccc21 (stereo not drawn)  DeltatarO mutant     active
2  CCOc1ccccc1NC(=O)Cn1c(=O)ccc2cc(S(=O)(=O)N3CCC(C)CC3)ccc21  DeltatarO mutant   inactive

---

test system: DeltatarO mutant; assay: S. aureus survival, RN4220 and DeltatarO strains – OD600, teichoic acid synthesis inhibitors, primary screen (AID 463173); details: S. aureus RN4220 wild type/DeltatarO growth, OD600, 18 h, hits give low values, screened at 18.75 µg/mL (by protocol)
Among all 52,000 compounds or so, about 4,300 (8.3%) were called active. What follows is part of a selection rich in actives, with near analogues and random picks from the rest.
endpoint: survival (%)

>>> df
                                        smi               tgt  unitofmeasure  readoutvalue
0  Cc1cc(NC(=O)N2CC=C(c3c[nH]c4ccccc34)CC2)ccc1Br  DeltatarO mutant              %            81
1                 Nc1nnc2c(n1)[nH]c1ccccc12  DeltatarO mutant              %            81
2        Cc1ccc(C(C)C)cc1S(=O)(=O)Nc1ccccn1  DeltatarO mutant              %           101
3  CCOC(=O)c1c(S(=O)(=O)N2CCC(C(=O)Nc3cccc(C)n3)CC2)c(C)n(C)c1C  DeltatarO mutant              %            94

---

system: DeltatarO mutant; assay: S. aureus survival, RN4220 and DeltatarO strains – OD600, teichoic acid synthesis inhibitors, primary screen (AID 463173); details: S. aureus RN4220 wild type/DeltatarO growth, OD600, 18 h, hits give low values, screened at 18.75 µg/mL (by protocol)
Out of some 52,000 compounds screened, about 4,300 (8.3%) were called active. Shown is part of a subset that was picked to be rich in actives.
// classify: if (survival < 90%) T else F

>>> print(df.to_string())
                                    compound               tgt  classname
 0  CCN(CC)C(=O)c1cc2c(n(-c3ccc(OC)cc3)c1=O)CC(C)(C)CC2=O  DeltatarO mutant          T
 1  O=C(CN1CCN(Cc2ccccc2Cl)C1=O)NCc1ccccc1Cl  DeltatarO mutant          T
 2  CCCS(=O)(=O)N1CC(=O)N(c2ccccc2C)C(C)(C(=O)NC2CCCCC2)C1 (stereo not drawn)  DeltatarO mutant          T
 3  CCOC(=O)C1CCCN(C(=O)Cn2ncc3c(C)n(Cc4ccc(Cl)cc4)c(C)c3c2=O)C1 (stereo not drawn)  DeltatarO mutant          T
 4  Cc1nn2c(=O)cc(COC(=O)c3cccc(NC(=O)c4ccc(C(C)(C)C)cc4)c3)nc2s1  DeltatarO mutant          T
 5          CCOc1ccc(C=Nc2ccc3c(c2)ncn3C)cc1  DeltatarO mutant          F
 6  CC(C)(C)OC(=O)N1CCC(c2c(C(=O)NCCN3CCc4ccccc4C3)cnn2-c2ccc(F)cc2)CC1  DeltatarO mutant          T
 7        CCn1cnc2cc(NCc3ccc(N(C)C)cc3)ccc21  DeltatarO mutant          T
 8  CCc1cccc(NC(=O)c2ccc3c(=O)n4nc(Nc5ccccc5OC)sc4nc3c2)c1  DeltatarO mutant          T
 9  Cc1ccc(N2CC(NC(=O)C3CC3)CC2=O)cc1C (stereo not drawn)  DeltatarO mutant          F
10  CCCc1cc(N2CCN(c3ccc(OC)cc3)CC2)n2cnnc2n1  DeltatarO mutant          T
11  CCCn1c(=O)n(-c2cc(Cl)c(OC)cc2OC)c(=O)c2c3c(sc21)CN(C(C)=O)CC3  DeltatarO mutant          T
12  CC(C)(C)n1cnc2cc(NS(=O)(=O)c3ccccc3)ccc21  DeltatarO mutant          T
13  CCC(=O)N1CCc2cc(CNC(=O)Nc3cc(C)ccc3C)ccc21  DeltatarO mutant          T
14     CCc1ccc(CNc2ccc3c(c2)ncn3C(C)(C)C)cc1  DeltatarO mutant          T
15           CCCCn1cnc2cc(NCc3ccccc3Cl)ccc21  DeltatarO mutant          T
16  Cc1ccc(Cl)cc1N1CCN(C(=O)c2cn(C)c3ccc(S(=O)(=O)N4CCCC4)cc3c2=O)CC1  DeltatarO mutant          F
17               COC(=O)c1[nH]c2ccc(F)cc2c1N  DeltatarO mutant          F
18  Cc1ccc(S(=O)(=O)N2CCCc3cc(NC(=O)c4c(F)cccc4F)ccc32)cc1  DeltatarO mutant          T
19        CCCCn1cnc2cc(NCc3ccc(OCC)cc3)ccc21  DeltatarO mutant          T
20  CCOc1ccccc1NC(=O)Nc1ccc2nc(N3CCN(C)CC3)cc(C)c2c1  DeltatarO mutant          T
21  NS(=O)(=O)c1ccc(NC(=O)C2CCCO2)cc1 (stereo not drawn)  DeltatarO mutant          F
22  Cc1ccccc1NS(=O)(=O)c1ccc2[nH]cc(C(=O)NC3CCCCC3)c(=O)c2c1  DeltatarO mutant          T
